System: HIV-1 construct carrying IN mutation G118R
Assay: single-round HIV-1 infectivity assay, G118R IN mutant
Format: cell-based
Conditions: Human immunodeficiency virus 1, read-out: EC50 G118R IN mutant
assay.readout: pEC50
Value format note: pEC50 is -log10 of concentration (mol/L); just state the number.

Which pEC50 is reported for this molecule? Cc1nnc(C(=O)NC(C)(C)c2nc(C(=O)NCc3ccc(F)cc3)c(O)c(=O)n2C)o1 [compound 1, raltegravir]
7.44
